target: HDM2 (Homo sapiens); construct: Thioredoxin (N); made in house; host or cells: E. coli strain BL21(DE3)Rosetta; assay: HDM2 FRET assay (inhibition of binding of FITC labeled p53-pocket peptide to HDM2); conditions: Table 11; read-out: FRET IC50
Sequence (Q00987 17-125): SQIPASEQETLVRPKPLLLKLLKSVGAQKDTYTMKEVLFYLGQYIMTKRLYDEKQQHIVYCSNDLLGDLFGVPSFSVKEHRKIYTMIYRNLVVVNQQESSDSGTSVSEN
pIC50: −log10 of the molar value.
Assign TRUE to entries whose pIC50 meets or exceeds 8; assign FALSE to the rest.

QUERY: pIC50 >= 8 for CC(C)C1CCCN1c1nc2nc(-c3noc(=O)[nH]3)nc(N[C@H](C)C3CCC3)c2n1C[C@H]1CC[C@H](C)CC1 (stereo partly drawn) [Example 11.46] ?
RESULT: TRUE

QUERY: pIC50 >= 8 for C[C@@H](Nc1nc(-c2noc(=O)[nH]2)nc2nc(N3CCCCC3C3CCCCC3)n(C[C@H]3CC[C@H](C)CC3)c12)C1CCC1 (stereo partly drawn) [Example 11.5] ?
RESULT: FALSE

QUERY: pIC50 >= 8 for C[C@@H](Nc1nc(C(=O)O)nc2nc(N3CCC4CCCCC4C3)n(C[C@H]3CC[C@H](C)CC3)c12)C1CCC1 (stereo partly drawn) [Example 11.22] ?
RESULT: FALSE

QUERY: pIC50 >= 8 for C[C@@H](Nc1nc(-c2noc(=O)[nH]2)nc2nc(N3CCCC3c3ccccc3)n(C[C@H]3CC[C@H](C)CC3)c12)C1CCC1 (single isomer, unassigned) [Example 11.136] ?
RESULT: FALSE

QUERY: pIC50 >= 8 for C[C@H]1CC[C@H](Cn2c(N3CCOC[C@H]3c3ccccc3)nc3nc(-c4noc(=O)[nH]4)nc(N4CCCCC4C4CCC4)c32)CC1 (stereo partly drawn) [Example 11.81] ?
RESULT: FALSE

QUERY: pIC50 >= 8 for C[C@@H](Nc1nc(-c2noc(=O)[nH]2)nc2nc(N3CCOC4CCCC43)n(C[C@H]3CC[C@H](C)CC3)c12)C1CCC1 (single isomer, unassigned) [Example 11.133] ?
RESULT: TRUE

QUERY: pIC50 >= 8 for C[C@@H](Nc1nc(-c2noc(=O)[nH]2)nc2nc(N3CCCC3CS(C)(=O)=O)n(C[C@H]3CC[C@H](C)CC3)c12)C1CCC1 (stereo partly drawn) [Example 11.153] ?
RESULT: FALSE

QUERY: pIC50 >= 8 for C[C@@H](Nc1nc(-c2noc(=O)[nH]2)nc2nc(N3CCCC[C@H]3c3ccccc3)n(C[C@H]3CC[C@H](C)CC3)c12)C1CCC1 [Example 11.15] ?
RESULT: TRUE

* * *

Give IC50 for every item shown.
biological target: HDM2 (Homo sapiens); construct: Thioredoxin (N); made in house; host or cells: E. coli strain BL21(DE3)Rosetta; assay: HDM2 FRET assay (inhibition of binding of FITC labeled p53-pocket peptide to HDM2); details: Table 9; read-out: FRET IC50
Give just the numeric value; nM need not be written.

QUERY: Recorded IC50 of C[C@@H](Nc1nc(C(=O)O)nc2nc(N(C)c3ccccc3)n(Cc3ccc(C(F)(F)F)cc3)c12)C1CCC1 , please.
RESULT: 20.7

QUERY: Recorded IC50 of CC(C)CN(C)c1nc2nc(-c3noc(=O)[nH]3)nc(N[C@H](C)C3CCC3)c2n1Cc1ccc(C(F)(F)F)cc1 , please.
RESULT: 11.6

QUERY: Recorded IC50 of C[C@@H](Nc1nc(C(=O)O)nc2nc(Nc3ccccc3)n(Cc3ccc(C(F)(F)F)cc3)c12)C1CCC1 , please.
RESULT: 9.44

QUERY: Recorded IC50 of C[C@@H](Nc1nc(-c2noc(=O)[nH]2)nc2nc(N3CCOC[C@H]3c3ccccc3)n(Cc3ccc(Cl)c(F)c3)c12)C1CCC1 , please.
RESULT: 0.848

QUERY: Recorded IC50 of C[C@@H](Nc1nc(-c2noc(=O)[nH]2)nc2nc(N3CCCC3(C)C)n(Cc3ccc(C(F)(F)F)cc3)c12)C1CCC1 , please.
RESULT: 25.6

QUERY: Recorded IC50 of Cc1noc(C2CCCCN2c2nc3nc(-c4noc(=O)[nH]4)nc(N[C@H](C)C4CCC4)c3n2Cc2ccc(C(F)(F)F)cc2)n1 (stereo partly shown) , please.
RESULT: 5.18

QUERY: Recorded IC50 of C[C@@H](Nc1nc(C(=O)O)nc2nc(N3CCN(C)CC3)n(Cc3ccc(C(F)(F)F)cc3)c12)C1CC1 , please.
RESULT: 2350

* * *

target: HDM2 (Homo sapiens); construct: Thioredoxin (N); made in house; host or cells: E. coli strain BL21(DE3)Rosetta; test: HDM2 FRET assay (inhibition of binding of FITC labeled p53-pocket peptide to HDM2); conditions: Table 6; read-out: FRET IC50
Give IC50 for every item shown.
Give just the numeric value; nM need not be written.

QUERY: Recorded IC50 of Cc1cccc(-c2nc3nc(C(=O)O)nc(NC4CCC(CO)CC4)c3n2Cc2ccc(C(F)(F)F)cc2)c1 (centres unmarked) , please.
RESULT: 925

QUERY: Recorded IC50 of Cc1cccc(-c2nc3nc(C(=O)O)nc(NC4CCC(C)CC4C)c3n2Cc2ccc(C(F)(F)F)cc2)c1 (centres unmarked) [Example 6.33] , please.
RESULT: 305

QUERY: Recorded IC50 of Cc1cccc(-c2nc3nc(C(=O)O)nc(N(C)CC(C)C)c3n2Cc2ccc(C(F)(F)F)cc2)c1 , please.
RESULT: 940

QUERY: Recorded IC50 of Cc1cccc(-c2nc3nc(C(=O)O)nc(N[C@H](C)C4CCCCC4)c3n2Cc2ccc(Cl)cc2)c1 , please.
RESULT: 1030

QUERY: Recorded IC50 of Cc1cccc(-c2nc3nc(C(=O)O)nc(NC4CCC(C)CC4)c3n2Cc2ccc(C(F)(F)F)cc2)c1 (centres unmarked) , please.
RESULT: 869

QUERY: Recorded IC50 of Cc1cccc(-c2nc3nc(C(=O)O)nc(NCC4CCC4)c3n2Cc2ccc(C(F)(F)F)cc2)c1 , please.
RESULT: 167

QUERY: Recorded IC50 of Cc1cccc(-c2nc3nc(C(=O)O)nc(N[C@H](C4CC4)C(F)(F)F)c3n2Cc2ccc(C(F)(F)F)cc2)c1 , please.
RESULT: 319

QUERY: Recorded IC50 of CCCCN(CCC)c1nc(C(=O)O)nc2nc(-c3cccc(C)c3)n(Cc3ccc(C(F)(F)F)cc3)c12 , please.
RESULT: 681

QUERY: Recorded IC50 of Cc1cccc(-c2nc3nc(C(=O)O)nc(N[C@@H](C)C4CCCCC4)c3n2Cc2ccc(C(F)(F)F)cc2)c1 , please.
RESULT: 1610

QUERY: Recorded IC50 of Cc1cccc(-c2nc3nc(C(=O)O)nc(NCCc4ccccc4)c3n2Cc2ccc(C(F)(F)F)cc2)c1 , please.
RESULT: 5080

QUERY: Recorded IC50 of Cc1cccc(-c2nc3nc(C(=O)O)nc(NC(C)C4CCCC4)c3n2Cc2ccc(C(F)(F)F)cc2)c1 (centres unmarked) , please.
RESULT: 373

QUERY: Recorded IC50 of Cc1cccc(-c2nc3nc(C(=O)O)nc(NC4CCC(C)CC4C)c3n2Cc2ccc(C(F)(F)F)cc2)c1 (centres unmarked) [Example 6.34] , please.
RESULT: 1140

QUERY: Recorded IC50 of Cc1cccc(-c2nc3nc(C(=O)O)nc(N[C@@H](C)C(C)C)c3n2Cc2ccc(C(F)(F)F)cc2)c1 , please.
RESULT: 622

QUERY: Recorded IC50 of Cc1cccc(-c2nc3nc(C(=O)O)nc(NC(C4CC4)C4CC4)c3n2Cc2ccc(C(F)(F)F)cc2)c1 , please.
RESULT: 329

QUERY: Recorded IC50 of CC(C)c1ccnc(-c2nc3nc(C(=O)O)nc(N[C@@H](c4ccccc4)C4CCC4)c3n2Cc2ccc(C(F)(F)F)cc2)c1 , please.
RESULT: 1060

QUERY: Recorded IC50 of Cc1cccc(-c2nc3nc(C(=O)O)nc(N[C@H](C)C4CC4)c3n2Cc2ccc(F)c(Cl)c2)c1 , please.
RESULT: 371

QUERY: Recorded IC50 of Cc1cccc(-c2nc3nc(C(=O)O)nc(NC4CCOCC4)c3n2Cc2ccc(C(F)(F)F)cc2)c1 , please.
RESULT: 1710

QUERY: Recorded IC50 of Cc1cccc(-c2nc3nc(C(=O)O)nc(NC(C)C4CC4C)c3n2Cc2ccc(C(F)(F)F)cc2)c1 (centres unmarked) [Example 6.37] , please.
RESULT: 360

QUERY: Recorded IC50 of CCN(CC)c1nc(C(=O)O)nc2nc(-c3cccc(C)c3)n(Cc3ccc(C(F)(F)F)cc3)c12 , please.
RESULT: 4600

QUERY: Recorded IC50 of CCCC(CCC)Nc1nc(C(=O)O)nc2nc(-c3cccc(C)c3)n(Cc3ccc(C(F)(F)F)cc3)c12 , please.
RESULT: 920

QUERY: Recorded IC50 of Cc1cccc(-c2nc3nc(C(=O)O)nc(N[C@H](C)C4CC4)c3n2Cc2ccc(Cl)c(Cl)c2)c1 , please.
RESULT: 462

QUERY: Recorded IC50 of Cc1cccc(-c2nc3nc(C(=O)O)nc(NC4CCCCC4C)c3n2Cc2ccc(Br)cc2)c1 (centres unmarked) [Example 6.9] , please.
RESULT: 22.3

QUERY: Recorded IC50 of O=C(O)c1nc(NCC2CC2)c2c(n1)nc(-c1cccc(Cl)c1)n2Cc1ccc(Cl)cc1 , please.
RESULT: 4100

QUERY: Recorded IC50 of Cc1cccc(-c2nc3nc(C(=O)O)nc(N[C@H](C)C(C)C)c3n2Cc2ccc(C(F)(F)F)cc2)c1 , please.
RESULT: 145

QUERY: Recorded IC50 of Cc1cccc(-c2nc3nc(C(=O)O)nc(NC4CCCC(C)C4)c3n2Cc2ccc(C(F)(F)F)cc2)c1 (centres unmarked) , please.
RESULT: 567

QUERY: Recorded IC50 of CC[C@H](Nc1nc(C(=O)O)nc2nc(-c3cc(C(C)C)ccn3)n(Cc3ccc(C(F)(F)F)cc3)c12)C1CCC1 , please.
RESULT: 203

QUERY: Recorded IC50 of Cc1cccc(-c2nc3nc(C(=O)O)nc(N[C@H](C)c4cccc(Cl)c4)c3n2Cc2ccc(C(F)(F)F)cc2)c1 , please.
RESULT: 2360

QUERY: Recorded IC50 of Cc1cccc(-c2nc3nc(C(=O)O)nc(NC4CCCC4)c3n2Cc2ccc(C(F)(F)F)cc2)c1 , please.
RESULT: 649

QUERY: Recorded IC50 of Cc1cccc(-c2nc3nc(C(=O)O)nc(NCc4ccccc4)c3n2Cc2ccc(C(F)(F)F)cc2)c1 , please.
RESULT: 1770
